system: HepG2; test: Cytotoxicity against human HepG2 cells after 1 to 4 hrs by MTS assay; assay type: cell-based
Property Label: IC50 (µM)
A number alone suffices; assume µM.

Prompt: Provide the documented IC50 with HepG2 as the system for CC[C@H]1OC(=O)[C@H](C)[C@@H](O[C@H]2C[C@@](C)(OC)[C@@H](O)[C@H](C)O2)[C@H](C)[C@@H](O[C@@H]2O[C@H](C)C[C@H](N(C)C)[C@H]2O)[C@](C)(O)C[C@@H](C)CN(CCNC(=S)Nc2ccccc2)[C@H](C)[C@@H](O)[C@]1(C)O
Response: 48

Prompt: Please tell me: IC50 of CC[C@H]1OC(=O)[C@H](C)[C@@H](O[C@H]2C[C@@](C)(OC)[C@@H](O)[C@H](C)O2)[C@H](C)[C@@H](O[C@@H]2O[C@H](C)C[C@H](N(C)C)[C@H]2O)[C@](C)(O)C[C@@H](C)CN(CCNC(=S)NCCc2ccccc2)[C@H](C)[C@@H](O)[C@]1(C)O , system HepG2?
Response: 9

Prompt: Request body: readout IC50, system HepG2, query CC[C@H]1OC(=O)[C@H](C)[C@@H](O[C@H]2C[C@@](C)(OC)[C@@H](O)[C@H](C)O2)[C@H](C)[C@@H](O[C@@H]2O[C@H](C)C[C@H](N(C)C)[C@H]2O)[C@](C)(O)C[C@@H](C)CN(CCNC(=O)NC(C)c2cccc3ccccc23)[C@H](C)[C@@H](O)[C@]1(C)O (some centres not stated) . Return the value.
Response: 10

Prompt: Lookup: IC50 / HepG2 / CC[C@H]1OC(=O)[C@H](C)[C@@H](O[C@H]2C[C@@](C)(OC)[C@@H](O)[C@H](C)O2)[C@H](C)[C@@H](O[C@@H]2O[C@H](C)C[C@H](N(C)C)[C@H]2O)[C@](C)(O)C[C@@H](C)CN(CCCN(CCC#N)C(=S)NCCCc2ccccc2)[C@H](C)[C@@H](O)[C@]1(C)O
Response: 9

Prompt: # query: IC50 | item CC[C@H]1OC(=O)[C@H](C)[C@@H](O[C@H]2C[C@@](C)(OC)[C@@H](O)[C@H](C)O2)[C@H](C)[C@@H](O[C@@H]2O[C@H](C)C[C@H](N(C)C)[C@H]2O)[C@](C)(O)C[C@@H](C)CN(CCNC(=O)Nc2ccc3ccccc3c2)[C@H](C)[C@@H](O)[C@]1(C)O | system: HepG2
Response: 9

----------
system: HepG2; test: Cytotoxicity against human HepG2 cells after 1 to 4 hrs by MTS assay; type: cell-based
Property Label: IC50 (µM)
Number only, in µM; omit the unit.

{"columns": ["Smiles Str", "Unit Spec", "IC50"],
 "data": [
  ["CC[C@H]1OC(=O)[C@H](C)[C@@H](O[C@H]2C[C@@](C)(OC)[C@@H](O)[C@H](C)O2)[C@H](C)[C@@H](O[C@@H]2O[C@H](C)C[C@H](N(C)C)[C@H]2O)[C@](C)(O)C[C@@H](C)CN(CCCN(CCC#N)C(=S)NCc2ccccc2)[C@H](C)[C@@H](O)[C@]1(C)O", "µM", 44]
]}

As a next step, examine the compound that follows.
Prompt: Could you tell me which IC50 is on file for CC[C@H]1OC(=O)[C@H](C)[C@@H](O)[C@H](C)[C@@H](O[C@@H]2O[C@H](C)C[C@H](N(C)C)[C@H]2O)[C@](C)(O)C[C@@H](C)CN(CCNC(=O)Nc2ccc3ccccc3c2)[C@H](C)[C@@H](O)[C@]1(C)O ?
Response: 16

----------
tested on: Plasmodium falciparum; assay: Antimalarial activity against chloroquine-sensitive Plasmodium falciparum D6 after 48 hrs by [3H]hypoxanthine incorporation assay; assay type: functional, organism-based
Readings of pIC50 for the listed molecules
Scale: pIC50 equals -log10([C]), with [C] in mol/L.

{"columns": ["Smiles Str", "System Tested", "Property Label", "Quantitative Readout"],
 "data": [
  ["CC[C@H]1OC(=O)[C@H](C)[C@@H](O[C@H]2C[C@@](C)(OC)[C@@H](O)[C@H](C)O2)[C@H](C)[C@@H](O[C@@H]2O[C@H](C)C[C@H](N(C)C)[C@H]2O)[C@](C)(O)C[C@@H](C)CN(CCCNC(=S)NCCc2ccccc2)[C@H](C)[C@@H](O)[C@]1(C)O", "Plasmodium falciparum", "pIC50", 6.67]
]}

With those in mind, consider the next molecule.
Prompt: Give pIC50 (Plasmodium falciparum) of the following molecule: CC[C@H]1OC(=O)[C@H](C)[C@@H](O[C@H]2C[C@@](C)(OC)[C@@H](O)[C@H](C)O2)[C@H](C)[C@@H](O[C@@H]2O[C@H](C)C[C@H](N(C)C)[C@H]2O)[C@](C)(O)C[C@@H](C)CN(CCCN(CCC#N)C(=S)NCCCc2ccccc2)[C@H](C)[C@@H](O)[C@]1(C)O
Response: 6.75

----------
tested on: Plasmodium falciparum; experiment: Antimalarial activity against chloroquine-sensitive Plasmodium falciparum D6 after 48 hrs by [3H]hypoxanthine incorporation assay; format: functional, organism-based
Property Label: IC50 (nM)
The reply should contain only the number, in nM.

The cases that follow already have their IC50 on record.
{"columns": ["Molecule", "System Tested", "Property Label", "Quantitative Readout"],
 "data": [
  ["CC[C@H]1OC(=O)[C@H](C)[C@@H](O)[C@H](C)[C@@H](O[C@@H]2O[C@H](C)C[C@H](N(C)C)[C@H]2O)[C@](C)(O)C[C@@H](C)CN(CCCNC(=S)NCc2ccccc2)[C@H](C)[C@@H](O)[C@]1(C)O", "Plasmodium falciparum", "IC50", 2040],
  ["CCNC(=O)NCCN1C[C@H](C)C[C@@](C)(O)[C@H](O[C@@H]2O[C@H](C)C[C@H](N(C)C)[C@H]2O)[C@@H](C)[C@H](O[C@H]2C[C@@](C)(OC)[C@@H](O)[C@H](C)O2)[C@@H](C)C(=O)O[C@H](CC)[C@@](C)(O)[C@H](O)[C@H]1C", "Plasmodium falciparum", "IC50", 3620],
  ["CC[C@H]1OC(=O)[C@H](C)[C@@H](O[C@H]2C[C@@](C)(OC)[C@@H](O)[C@H](C)O2)[C@H](C)[C@@H](O[C@@H]2O[C@H](C)C[C@H](N(C)C)[C@H]2O)[C@](C)(O)C[C@@H](C)CN(CCNC(=O)NCCc2ccccc2)[C@H](C)[C@@H](O)[C@]1(C)O", "Plasmodium falciparum", "IC50", 546]
]}

Prompt: Give IC50 (Plasmodium falciparum) of the following molecule: CC[C@H]1OC(=O)[C@H](C)[C@@H](O)[C@H](C)[C@@H](O[C@@H]2O[C@H](C)C[C@H](N(C)C)[C@H]2O)[C@](C)(O)C[C@@H](C)CN(CCNC(=S)NCCCc2ccccc2)[C@H](C)[C@@H](O)[C@]1(C)O
Response: 654

Prompt: Quick check: IC50 on Plasmodium falciparum, item CC[C@H]1OC(=O)[C@H](C)[C@@H](O[C@H]2C[C@@](C)(OC)[C@@H](O)[C@H](C)O2)[C@H](C)[C@@H](O[C@@H]2O[C@H](C)C[C@H](N(C)C)[C@H]2O)[C@](C)(O)C[C@@H](C)CN(CCNC(=O)NC(C)c2cccc3ccccc23)[C@H](C)[C@@H](O)[C@]1(C)O (stereo not given in full) ?
Response: 179

----------
assay: Half life in mouse liver microsomes at 1 uM by LCMS analysis; format: ADME, Microsome
The compounds listed here are annotated with their half-life at 1 µM.

Recorded half-life at 1 µM, per entry:
{"columns": ["Smiles Str", "Result"],
 "data": [
  ["CC[C@H]1OC(=O)[C@H](C)[C@@H](O[C@H]2C[C@@](C)(OC)[C@@H](O)[C@H](C)O2)[C@H](C)[C@@H](O[C@@H]2O[C@H](C)C[C@H](N(C)C)[C@H]2O)[C@](C)(O)C[C@@H](C)CN(CCN(CCC(N)=O)C(=O)Nc2ccc3ccccc3c2)[C@H](C)[C@@H](O)[C@]1(C)O", "> 2 h"],
  ["CC[C@H]1OC(=O)[C@H](C)[C@@H](O[C@H]2C[C@@](C)(OC)[C@@H](O)[C@H](C)O2)[C@H](C)[C@@H](O[C@@H]2O[C@H](C)C[C@H](N(C)C)[C@H]2O)[C@](C)(O)C[C@@H](C)CN(CCNC(=O)NCc2ccccc2)[C@H](C)[C@@H](O)[C@]1(C)O", "> 2 h"],
  ["CC[C@H]1OC(=O)[C@H](C)[C@@H](O[C@H]2C[C@@](C)(OC)[C@@H](O)[C@H](C)O2)[C@H](C)[C@@H](O[C@@H]2O[C@H](C)C[C@H](N(C)C)[C@H]2O)[C@](C)(O)C[C@@H](C)CN(CCCN(CCC#N)C(=O)Nc2cccc3ccccc23)[C@H](C)[C@@H](O)[C@]1(C)O", "> 2 h"]
]}

Prompt: Need half-life at 1 µM of CC[C@H]1OC(=O)[C@H](C)[C@@H](O[C@H]2C[C@@](C)(OC)[C@@H](O)[C@H](C)O2)[C@H](C)[C@@H](O[C@@H]2O[C@H](C)C[C@H](N(C)C)[C@H]2O)[C@](C)(O)C[C@@H](C)CN(CCCNC(=S)NCc2ccccc2)[C@H](C)[C@@H](O)[C@]1(C)O , thanks.
Response: > 2 h
